# tested_system: human TRPM8 (Homo sapiens, UniProt Q7Z2W7)
# Sequence (Q7Z2W7 whole entry): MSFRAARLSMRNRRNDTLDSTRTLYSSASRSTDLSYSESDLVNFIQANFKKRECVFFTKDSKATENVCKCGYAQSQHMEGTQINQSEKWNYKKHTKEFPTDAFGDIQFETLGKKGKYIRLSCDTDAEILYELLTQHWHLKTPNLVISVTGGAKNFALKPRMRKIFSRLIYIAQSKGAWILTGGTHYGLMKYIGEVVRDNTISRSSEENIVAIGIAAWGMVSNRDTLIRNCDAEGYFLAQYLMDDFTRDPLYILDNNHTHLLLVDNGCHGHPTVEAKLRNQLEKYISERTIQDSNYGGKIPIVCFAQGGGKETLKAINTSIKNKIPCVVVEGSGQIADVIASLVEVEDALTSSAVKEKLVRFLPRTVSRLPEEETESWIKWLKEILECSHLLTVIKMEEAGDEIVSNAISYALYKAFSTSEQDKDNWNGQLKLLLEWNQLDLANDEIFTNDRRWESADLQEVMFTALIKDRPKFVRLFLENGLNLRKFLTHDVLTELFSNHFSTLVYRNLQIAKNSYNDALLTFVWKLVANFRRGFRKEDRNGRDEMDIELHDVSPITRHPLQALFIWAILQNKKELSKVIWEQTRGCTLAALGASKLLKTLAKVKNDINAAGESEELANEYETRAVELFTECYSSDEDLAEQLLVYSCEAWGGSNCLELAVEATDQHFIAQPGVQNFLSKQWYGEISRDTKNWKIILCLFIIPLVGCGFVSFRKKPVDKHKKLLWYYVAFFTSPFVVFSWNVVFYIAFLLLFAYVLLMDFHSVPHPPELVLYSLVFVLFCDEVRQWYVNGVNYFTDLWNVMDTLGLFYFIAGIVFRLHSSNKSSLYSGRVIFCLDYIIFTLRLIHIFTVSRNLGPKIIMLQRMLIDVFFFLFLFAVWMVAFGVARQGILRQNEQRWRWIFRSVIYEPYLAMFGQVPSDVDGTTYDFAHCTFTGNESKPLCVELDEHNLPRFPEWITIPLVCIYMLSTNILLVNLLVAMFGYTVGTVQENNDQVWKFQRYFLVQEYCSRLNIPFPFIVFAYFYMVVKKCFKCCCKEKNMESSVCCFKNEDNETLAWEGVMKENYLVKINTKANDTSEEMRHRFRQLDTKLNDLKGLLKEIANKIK
# assay_name: Automated patch clamp (IonFlux 16) of menthol-evoked TRPM8 currents in HEK293 cells stably expressing human TRPM8
# test_context: read-out: IC50, inhibition of menthol-induced TRPM8 current

{"compound": "OC(CNCC(O)C1CCc2cc(F)ccc2O1)C1CCc2cc(F)ccc2O1 (stereo not shown)", "tested_system": "human TRPM8 (Homo sapiens, UniProt Q7Z2W7)", "IC50, µM": 0.97}
{"compound": "COc1ccccc1OCCNCC(O)COc1cccc2[nH]c3ccccc3c12 (stereo not shown)", "tested_system": "human TRPM8 (Homo sapiens, UniProt Q7Z2W7)", "IC50, µM": 9.1}
{"compound": "CC(C)NCC(O)COc1cccc2ccccc12 (stereo not shown)", "tested_system": "human TRPM8 (Homo sapiens, UniProt Q7Z2W7)", "IC50, µM": 45}
{"compound": "CCCNCC(O)COc1ccccc1C(=O)CCc1ccccc1 (stereo not shown)", "tested_system": "human TRPM8 (Homo sapiens, UniProt Q7Z2W7)", "IC50, µM": 16.8}

====

Examples of compounds with documented inhibition at 10 µM follow.
# tested_system: human TRPM8 (Homo sapiens)
# Construct: expressed in transfected cells
# assay_name: Automated patch clamp (IonFlux 16) of menthol-evoked TRPM8 currents in HEK293 cells stably expressing human TRPM8
# Assay type: cell-based
# test_context: HEK293; read-out: Average Percentage Inhibition at 10 µM

{"compound": "COc1ccccc1OCC(O)CN1CCN(CC(=O)Nc2c(C)cccc2C)CC1 (stereo not drawn)", "inhibition at 10 µM, %": 0}
{"compound": "O=C1NC(=O)C(c2ccccc2)(c2ccccc2)N1", "inhibition at 10 µM, %": 0}
{"compound": "CCCCNc1ccc(C(=O)OCCN(C)C)cc1", "inhibition at 10 µM, %": 0}
{"compound": "Cc1cccc(C)c1OCC(C)N (stereo not drawn)", "inhibition at 10 µM, %": 0}
{"compound": "CC(C)NCC(O)COc1ccc(CC(N)=O)cc1 (stereo not drawn)", "inhibition at 10 µM, %": 0}
{"compound": "NC(=O)N1c2ccccc2C=Cc2ccccc21 [Carbamazepine, carbamazepine]", "inhibition at 10 µM, %": 0}
{"compound": "CCCC(=O)Nc1ccc(OCC(O)CNC(C)C)c(C(C)=O)c1 (stereo not drawn)", "inhibition at 10 µM, %": 0}
{"compound": "OC(CNCC(O)C1CCc2cc(F)ccc2O1)C1CCc2cc(F)ccc2O1 (stereo not drawn)", "inhibition at 10 µM, %": 100}
{"compound": "COc1ccccc1OCCNCC(O)COc1cccc2[nH]c3ccccc3c12 (stereo not drawn)", "inhibition at 10 µM, %": 57}
{"compound": "O=C(NCC1CCCCN1)c1cc(OCC(F)(F)F)ccc1OCC(F)(F)F (stereo not drawn) [Flecainide, flecainide]", "inhibition at 10 µM, %": 0}
{"compound": "NC(=O)N1c2ccccc2CC(=O)c2ccccc21 [Oxcarbazepine, oxcarbazepine]", "inhibition at 10 µM, %": 0}
{"compound": "NC(=O)c1cn(Cc2c(F)cccc2F)nn1 [Rufinamide, rufinamide]", "inhibition at 10 µM, %": 0}
{"compound": "CC(C)NCC(O)COc1cccc2ccccc12 (stereo not drawn)", "inhibition at 10 µM, %": 12}
{"compound": "Nc1nnc(-c2cccc(Cl)c2Cl)c(N)n1", "inhibition at 10 µM, %": 0}
{"compound": "CC(C)(C)NCC(O)COc1cccc2c1CC(O)C(O)C2 (stereo not drawn)", "inhibition at 10 µM, %": 0}
{"compound": "CCCNCC(O)COc1ccccc1C(=O)CCc1ccccc1 (stereo not drawn)", "inhibition at 10 µM, %": 26}
{"compound": "COCCc1ccc(OCC(O)CNC(C)C)cc1 (stereo not drawn)", "inhibition at 10 µM, %": 0}
{"compound": "Nc1nc2ccc(OC(F)(F)F)cc2s1", "inhibition at 10 µM, %": 0}
